# Assayed Target: recombinant HIV-1 NCp7 protein (Human immunodeficiency virus type 1 group M subtype B, UniProt P03347)
# Construct: within the nucleocapsid p7 (NCp7) protein portion of the polyprotein
# Protocol Text: Trp37 zinc finger fluorescence (zinc ejection) assay
# Format: biochemical
# Setup Conditions: Table 5; average decrease in relative fluorescence units over 30 min
Zinc Finger Reactivity RFU/ min less than 4 RFU/ min is y; Zinc Finger Reactivity RFU/ min greater than or equal to 4 RFU/ min is n.

>>> category("CC(=O)NS(=O)(=O)c1ccc(NC(=O)c2ccccc2SC(=O)CCCC[n+]2ccccc2)cc1 [Compound 45]")
"y"
>>> category("COc1ccc(C(=O)Sc2ccccc2C(=O)Nc2ccc(S(=O)(=O)NC(C)=O)cc2)cc1 [Compound 42]")
"y"
>>> category("CC(=O)NS(=O)(=O)c1ccc(NC(=O)c2ccccc2SC(=O)c2ccccc2)cc1 [Compound 41]")
"y"
>>> category("CC(=O)NS(=O)(=O)c1ccc(NC(=O)c2ccccc2SC(=O)CCCCBr)cc1 [Compound 44]")
"y"
>>> category("CC(=O)NS(=O)(=O)c1ccc(NC(=O)c2ccccc2NC(=O)CCl)cc1 [Compound 39]")
"y"
>>> category("CC(=O)NS(=O)(=O)c1ccc(NC(=O)c2ccccc2SC(C)=O)cc1 [Compound 40]")
"n"
